Can you tell me pIC50 for the items I'm about to list?
- Test system: HCT116 (colorectal carcinoma, K Ras G13D) cells
- EXPERIMENTAL_DETAILS: Cell proliferation (Alamar Blue) assay, HCT116
- Format: cell-based, human
- CONDITIONS: Homo sapiens, HCT-116, HCT116 cells
pIC50: −log10 of the molar value.

Cc1cnc(Nc2ccc(F)cc2)nc1-n1ccc(C(=O)NC(CO)c2cccc(Cl)c2)c1 (stereo not drawn) [Example 113]
6.60 to 7.00

State the recorded pIC50 for every item in the following list.
1. Cc1cnc(Nc2ccccn2)cc1-n1ccc(C(=O)NC(CO)c2ccccc2)c1 (stereo not drawn) [Example 149]
2. O=C(NC(CO)c1ccccc1)c1ccn(-c2ccnc(Nc3ccccc3)c2)c1 (stereo not drawn) [Example 71]
3. Cc1cnc(NC2CCCN(C)C2)nc1-n1ccc(C(=O)NC(CO)c2cccc(Cl)c2)c1 (stereo not drawn) [Example 199]
4. O=C(N[C@H](CO)c1cccc(Cl)c1)c1cn(-c2ccnc(NC3CCOC3)c2)cn1 (stereo partly drawn) [Example 170]
5. Cc1cnc(Nc2ccc3occc3c2)cc1-n1ccc(C(=O)NC(CO)c2ccccc2)c1 (stereo not drawn) [Example 79]
6. O=C(NC(CO)c1ccccc1)c1ccn(-c2ccnc(Nc3ccc(F)cc3Cl)c2)c1 (stereo not drawn) [Example 82]
7. Cc1cnc(Nc2ccc3c(c2)OCO3)cc1-n1cnc(C(=O)NC(CO)c2cccc(Cl)c2)c1 (stereo not drawn) [Example 88]
8. O=C(Nc1cnn(-c2ccnc(NC3CC3)n2)c1)NC(CO)c1cccc(Cl)c1 (stereo not drawn) [Example 16]

A:
1. < 5.60
2. < 5.60
3. < 5.60
4. < 5.60
5. < 5.60
6. < 5.60
7. < 5.60
8. < 5.60

====

Provide the recorded IC50 for the entries that follow.
- System: HCT116 (colorectal carcinoma, K Ras G13D) cells
- EXPERIMENTAL_DETAILS: Cell proliferation (Alamar Blue) assay, HCT116
- Type: cell-based, human
- CONDITIONS: Homo sapiens, HCT-116, HCT116 cells

Cc1cnc(NC2CCOCC2)nc1-n1cnc(C(=O)NCc2cccc(Cl)c2CCO)c1 [Example 334]
≤ 0.1 µM

# map each compound to its IC50
1. O=C(Nc1cnn(-c2ccnc(Nc3ccc4c(c3)OCO4)n2)c1)N[C@H](CO)c1cccc(Cl)c1 [Example 21]
2. Cc1cnc(Nc2ccc3c(c2)OCO3)nc1-n1ccc(C(=O)N[C@H](CO)c2ccc(F)c(Cl)c2)c1 [Example 87]
3. Cc1cnc(NC2CCOCC2)nc1-n1cnc(C(=O)NC(CN)c2cccc(Cl)c2)c1 (racemic) [Compound 225]
4. Cc1cnc(NC2CC2)nc1-n1ccc(C(=O)NC(CO)c2cccc(Cl)c2)c1 (centres unmarked) [Example 115]
5. Cc1cnc(Nc2cccc3c2OC(F)(F)O3)nc1-n1ccc(C(=O)NC(CO)c2cccc(Cl)c2)c1 (centres unmarked) [Example 160]
6. NCC(NC(=O)c1ccn(-c2ccnc(Nc3ccc(F)cc3)c2)c1)c1ccccc1 (centres unmarked) [Example 206]
7. Cc1cnc(NC2CCOCC2)nc1-n1cnc(C(=O)NCc2ccccc2C(C)(C)O)c1 [Example 293]

A:
1: > 2.5 µM; 2: 0.5 to 2.5 µM; 3: ≤ 0.1 µM; 4: > 2.5 µM; 5: > 2.5 µM; 6: > 2.5 µM; 7: 0.5 to 2.5 µM

====

- Tested on: HCT116 (colorectal carcinoma, K Ras G13D) cells
- EXPERIMENTAL_DETAILS: Cell proliferation (Alamar Blue) assay, HCT116
- Format: cell-based, human
- CONDITIONS: Homo sapiens, HCT-116, HCT116 cells
For each record, write down the corresponding IC50.

Examples from the recorded data:
Cc1cnc(NC2CC(F)(F)C2)nc1-n1cnc(C(=O)NCc2cccc(Cl)c2CO)c1
≤ 100 nM
Cc1cnc(Nc2ccc(F)cc2Cl)nc1-n1cc(NC(=O)NC(CO)c2cccc(Cl)c2)cn1 (centres unmarked)
> 2500 nM
Cc1cnc(NC2CCOC2)nc1-n1ccc(C(=O)NC(CO)c2cccc(Cl)c2)c1 (centres unmarked)
500 to 2500 nM
Cc1cnc(NC2CCS(=O)(=O)C2)nc1-n1cnc(C(=O)N[C@H](CO)c2cccc(Cl)c2)c1 (some centres unmarked)
> 2500 nM
Cc1cnc(Nc2ccc3c(c2)OC(C)(C)O3)nc1-n1ccc(C(=O)NC(CO)c2ccccc2)c1 (centres unmarked)
500 to 2500 nM

// input: 6 compounds below; output: IC50 for each
1. Cc1cnc(NC(CO)CO)nc1-n1cnc(C(=O)N[C@H](CO)c2cccc(Cl)c2)c1
2. Cc1cnc(Nc2ccc(F)cc2)nc1-n1cnc(C(=O)NC(CN)c2cccc(Cl)c2)c1 (centres unmarked)
3. Cc1ccc(C(CO)NC(=O)c2cn(-c3nc(NC4CCOCC4)ncc3C)cn2)s1 (centres unmarked)
4. Cc1cnc(Nc2ccc(N3CCNCC3)cc2)cc1-n1ccc(C(=O)NC(CO)c2ccccc2)c1 (centres unmarked)
5. CC[C@@H](CO)Nc1ncc(C)c(-n2cnc(C(=O)N[C@H](CO)c3cccc(Cl)c3)c2)n1
6. Cc1cnc(N[C@H]2CCOC2)nc1-n1cnc(C(=O)NCc2c(F)cccc2F)c1

A:
1: > 2500 nM; 2: 100 to 250 nM; 3: > 2500 nM; 4: > 2500 nM; 5: 500 to 2500 nM; 6: > 2500 nM

Source listed as patent US11925629B2.
